This collection of values is drawn from PubChem BioAssay (NCI).

test system: LOX IMVI melanoma; experiment: NCI-60 one-dose screen, 48 h (100 = growth as untreated, 0 = no growth, -100 = all killed); conditions: 10 µM unless noted
About 83,000 compounds went through this panel and 20% of them were active in at least one assay; those are over-represented in the sample as a whole.
Measured growth of individual entries
Answer format: numeric, % implied, no suffix.

Answered examples (4):
S=c1ccnc[nH]1
96.5
O=C1O[C@@H](c2ccccc2Cl)[C@@H]2c3cc4c(cc3CCN12)OCO4
99.5
C=C(c1ccc(C(=O)O)c(F)c1)c1cc2c(cc1C)C(C)(C)CCC2(C)C
93.9
O=C1Nc2ccccc2/C1=N/N1C(=O)CN(CCCl)C1=O
100

**Q:** Requested read-out: growth. Entry: O=c1cc(-c2ccccc2)nc(SCc2nc3cc(Cl)c(Cl)cc3[nH]2)[nH]1
**A:** 98

**Q:** Also need CCN(CC)CCCNc1cc(OC)c(OC)c2cccnc12 , thanks.
**A:** 34.2

**Q:** Also need COc1ccc2[nH]cc(-c3nonc3-c3c[nH]c4ccc(Br)cc34)c2c1 , thanks.
**A:** -33.4

**Q:** Also need C=C(C)[C@@H]1CC[C@]2(C)[C@H](C=CC3=C4C[C@@](C)(CO)CC[C@]4(C)CC[C@]32C)[C@@]1(C)CCCN , thanks.
**A:** -100

**Q:** Also need Clc1cccc(C2Cc3cnccc3-c3[nH]c4ccncc4c32)c1 (centres undefined) , thanks.
**A:** 39.7

====

test system: BT-549 breast; test: NCI-60 one-dose screen, 48 h; conditions: 10 µM unless noted
About 83,000 compounds went through this panel and 20% of them were active in at least one assay; those are over-represented in the sample as a whole. Active and inactive are the calls of the source. The calls were made as follows: active = growth percent below 10; inactive = the rest.
Allowed answers: 1 for active, -1 for inactive

Here are 8 molecules together with their reported answers.
Cn1c(=O)[nH]c(=O)c2nc3c(nc21)-c1ccccc1C3=O
-1
Cc1cn(C)cn1
-1
C#CCOc1cccc(Nc2ncnc3cc(NC(=O)CCl)ccc23)c1
1
CC(=O)O[C@H]1CC[C@]2(C)[C@H]3CC=C4[C@@H]5CC(C)(C)CC[C@]5(C(=O)N5CCN(CCC#N)CC5)CC[C@@]4(C)[C@]3(C)CC[C@H]2C1(C)C
-1
COCCn1cc(-c2nc(-c3cn(CCOC)c4ncccc34)cs2)c2cc(F)ccc21
-1
Cc1ccc(-c2nc(SCC(=O)N3CCN(c4cc5c(cc4F)c(=O)c(C(=O)O)cn5C4CC4)CC3)nc(Cl)c2C#N)cc1
-1
C[C@H]1[C@H](C)CC[C@]2(C(=O)NCCNCCN)CC[C@]3(C)C(=CC[C@@H]4[C@@]5(C)CCC(=O)C(C)(C)[C@@H]5CC[C@]43C)[C@H]12
-1
O=C(O)c1cn(C2CC2)c2cc(N3CCN(C(=O)N4CCOCC4)CC3)c(F)cc2c1=O
-1

**Q:** Assay outcome for Cc1cc(C(=O)CCCC(=O)c2cc(C)c(O)c(C)c2)cc(C)c1O : what was it?
**A:** -1

**Q:** Also need CCOC(=O)/C=C1\S/C(=N\Nc2cc(=O)[nH]c3ccc(Br)cc23)N(c2ccccc2)C1=O , thanks.
**A:** -1

**Q:** Also need CN1CCOCCN(C)Cc2ccc3ccc(cc3c2)CN(C)CCOCCN(C)Cc2ccc3ccc(cc3c2)C1 , thanks.
**A:** -1

**Q:** Also need COC12C=C/C(=C(/C(=O)OCCSc3ccnn3C)C(=O)CCCCCCCCC3(OC)C=C/C(=C(/C(=O)OCCSc4ccnn4C)C(=O)CCCCCCCC1)O3)O2 , thanks.
**A:** 1
